Test name: BET inhibitor-based combinations targeting novel dependencies in MECOM-rearranged (r) AML: AML-191 cell line (AID 2202236; also: nearly all actives have a fitted effect of over 35% in size)
Condition parameters: AML-191 viability, CellTiter-Glo luminescence, 48 h; series mostly up to 46 µM
Inconclusive results are not listed. Calls of active or inactive are those of the source. Calls follow the shape of the dose curve; as a rule, active = well fitted inhibition curve with a large enough effect; inconclusive = small, poorly fitted or top-dose-only effect; inactive = flat fitted curve, though single readings scatter.
Write down the outcome that applies. Available outcomes: active, inactive

Use the examples below as a reference point.
COc1ccc(N2C(=O)N(c3c(C)cccc3Cl)Cc3cnc(Nc4ccc(C5CCN(C)CC5)cc4OC)nc32)nc1 active
C[C@H]1C[C@H]2[C@@H]3CCC4=CC(=O)C=C[C@]4(C)[C@H]3C(=O)C[C@]2(C)[C@@]1(O)C(=O)CO inactive
CCCS(=O)(=O)c1nc(NC2CC2)cc(-c2ccc3c(ccn3C3CC(C)(C)NC(C)(C)C3)c2)n1 active
C[C@@]12C(=O)OC(=O)[C@]1(C)[C@H]1CC[C@@H]2O1 active
CC(C)(O)[C@H]1CC[C@@](C)([C@H]2[C@@H](O)C[C@@]3(C)[C@@H]4C[C@H](O[C@@H]5O[C@H](CO)[C@@H](O)[C@H](O)[C@H]5O)[C@H]5C(C)(C)[C@@H](O[C@@H]6OC[C@@H](O)[C@H](O)[C@H]6O)CC[C@@]56C[C@@]46CC[C@]23C)O1 inactive

Query: Call for entry `Nc1cc(C(F)(F)F)c(-c2nc(N3CCOCC3)nc(N3CCOCC3)n2)cn1` :
Result: active

Query: What did the test return for `COc1ccc(/C=C\c2cc(OC)c(OC)c(OC)c2)cc1O` ?
Result: active

Query: Outcome logged for `CCC1=C[C@@H]2CN(C1)Cc1c([nH]c3ccccc13)[C@@](C(=O)OC)(c1cc3c(cc1OC)N(C)[C@H]1[C@@](O)(C(=O)OC)[C@H](OC(C)=O)[C@]4(CC)C=CCN5CC[C@]31[C@@H]54)C2` in this assay:
Result: active

---

Test name: qHTS for Inhibitors of the Aldehyde Dehydrogenase Family (ALDH1A2, ALDH1A3, ALDH2, ALDH3A1) (AID 2061307); also: nearly all actives have a fitted effect of over 50% in size; as to Potency: test system not described further here; potency is read from the fitted curve at half-maximal effect
Condition parameters: ALDH inhibition qHTS; series mostly up to 50.3 µM
Records with an inconclusive call do not appear. Activity calls are given as the source filed them. The call rests on the fitted dose curve; in most records, active means well fitted inhibition curve with a large enough effect; inconclusive means small, poorly fitted or top-dose-only effect; inactive means no such curve, though single readings can be large or run the other way.
Attribute measured: Potency

Solved cases (6 shown):
Compound	Result
Cc1nc(-c2ccc(Cl)s2)sc1C(=O)Nc1ccc(C(N)=O)c(F)c1	inactive
Cc1ccc(-c2cc(C(=O)Nc3ccc(-c4noc(=O)[nH]4)cc3)c3ccccc3n2)cc1C	7.08 µM (active)
Nc1ccccc1C(=O)NCc1ccco1	inactive
COc1ccc(C2Nc3ccccc3C(=O)N2Cc2ccccn2)cc1COc1ccc(NC(C)=O)cc1 (stereo not given)	6.31 µM (active)
N[C@H](CCC(=O)Nc1cccc(-c2nn3c(=O)cc(N4CCNCC4)nc3s2)c1)C(=O)O	inactive
Cc1cnc(-c2ccccc2CO)nc1NCC1CCN(c2cccnc2)CC1	inactive

Query: For the compound shown here, COc1ccc(C2Nc3ccccc3C(=O)N2Cc2ccc(CNC(=O)CO)cc2)cc1COc1ccc(NC(C)=O)cc1 (stereo not given) , give the reported Potency.
Result: 4.49 µM (active)

Query: Which Potency reading was recorded for the compound `CN1CCN(C(=O)c2cccc(-c3ccc(CNc4ccc(N5CCN(C(=O)OC(C)(C)C)CC5)cc4)o3)c2)CC1` ?
Result: inactive

Query: Value lookup for Potency; key = `O=C(Nc1cc(C(F)(F)F)ccc1Cl)c1nc2ccccc2nc1N1CCCCC1`
Result: inactive

Query: Any idea what its Potency is? The compound is `COc1ccnc(NC(=S)N2CCN(c3cccc(Cl)c3Cl)CC2)c1`
Result: 10 µM (active)

Query: Given the entry `O=C(OCC#CCSc1nnc(-c2cccc3ccccc23)o1)c1ccc(Br)cc1` , report its measured Potency.
Result: inactive

Query: # lookup: Potency of `O=C(Nc1ccc2oc(-c3cccnc3)nc2c1)c1ccc(-c2ccccc2)o1`
Result: inactive

Query: If you can, please state the reported Potency value of `COc1ccc(-n2c(CSCc3ccccc3)c(C(C)=O)c3cc(O)ccc32)cc1` .
Result: inactive

Query: Field request: Potency | item: `CCn1cnc2c(Nc3ccc(CC(=O)N=C(N)N)cc3)nc(C#N)nc21`
Result: inactive

Query: What value of measured Potency is listed for `c1ccc(CCN(Cc2ccccc2)C2CCN(C3CCCCC3)CC2)cc1` ?
Result: 7.94 µM (active)

Query: Given `O=C(c1ccco1)N1CCN(Cc2nc3ccccc3c(=O)n2-c2ccccc2[N+](=O)[O-])CC1` , state its recorded Potency.
Result: inactive

Query: Fill in: Potency of `N[C@@H](Cc1ccc(OS(=O)(=O)c2cccnc2)cc1)C(=O)N1CCN(c2ccccc2)CC1` is ___
Result: 5.65 µM (active)

Query: For the compound shown here, `O=S1(=O)N=C(Oc2cccc3ccccc23)c2ccccc21` , give the reported Potency.
Result: 2.83 µM (active)

Query: Potency lookup needed for `c1cc(NC2CNC2)nc(-c2cnc3ccccn23)c1` , thanks.
Result: inactive

Query: So what does the record say about Potency for `CCN(CC)S(=O)(=O)c1cccc(NC(=O)CNc2cccc(S(=O)(=O)N3CCOCC3)c2)c1` ?
Result: 10 µM (active)

---

System name: Retinal dehydrogenase 2 (Homo sapiens) (UniProt O94788)
Test name: qHTS for Inhibitors of the Aldehyde Dehydrogenase Family (ALDH1A2) Confirmation screens (AID 2061314); also: nearly all actives have a fitted effect of over 65% in size
Condition parameters: ALDH1A2 enzyme inhibition qHTS confirmation; series mostly up to 45.9 µM
Results filed as inconclusive are left out. Calls of active or inactive are those of the source. Calls come from the whole dose curve; as a rule, active = well fitted inhibition curve with a large enough effect; inconclusive = small, poorly fitted or top-dose-only effect; inactive = no such curve, though single readings can be large or run the other way.
Bench note: report the call from active, inactive

Query: Which outcome was assigned to `O=C(Nc1ncc(Cc2ccc(C(F)(F)F)cc2)s1)c1ccc(-c2ccc([N+](=O)[O-])cc2)o1` in this test?
Result: active

Query: Lab log entry: `Cc1cc(C)nc(NC(=S)N2CCN(c3cccc4cnccc34)CC2)c1` — outcome as called in the assay?
Result: active

---

Test name: BET inhibitor-based combinations targeting novel dependencies in MECOM-rearranged (r) AML: HNT-34 cell line (AID 2202234); also: nearly all actives have a fitted effect of over 35% in size
Condition parameters: HNT-34 AML viability, CellTiter-Glo luminescence, 48 h; series mostly up to 46 µM
Results filed as inconclusive are left out. Active and inactive are the calls of the source. Calls follow the shape of the dose curve; as a rule, active = well fitted inhibition curve with a large enough effect; inconclusive = small, poorly fitted or top-dose-only effect; inactive = no such curve, though single readings can be large or run the other way.
Write down the outcome that applies. Available outcomes: TRUE (active), FALSE (inactive)

Below, 5 compounds whose answers are already recorded.
O=C(c1ccc(Nc2nc(C3CC3)cn3c(-c4cn[nH]c4)cnc23)c(F)c1)N1CCOCC1 TRUE
O=C(CCCCCCC(=O)N/N=C/c1ccc(N(c2ccccc2)c2ccccc2)cc1)NO TRUE
COC(=O)/C=C/C(=O)OC FALSE
CC(=O)N[C@H]1[C@H](O[C@@H]2c3ccc(c(Cl)c3)Oc3cc4cc(c3O[C@@H]3O[C@H](CO)[C@@H](O)[C@H](O)[C@H]3NC(=O)CCCCCCCC(C)C)Oc3ccc(cc3Cl)C[C@H]3NC(=O)[C@H](N)c5ccc(O)c(c5)Oc5cc(O)cc(c5)[C@H](NC3=O)C(=O)N[C@H]4C(=O)N[C@H]3C(=O)N[C@@H]2C(=O)N[C@@H](C(=O)O)c2cc(O)cc(O[C@H]4O[C@H](CO)[C@@H](O)[C@H](O)[C@@H]4O)c2-c2cc3ccc2O)O[C@H](CO)[C@@H](O)[C@@H]1O FALSE
C/C(=N\NC(=O)c1cccc(S(=O)(=O)N2CCOCC2)c1)c1cc(Cl)ccc1O TRUE

As a next step, examine the compound that follows.
Query: Please indicate how the test categorized `CN(CCOc1ccc(-c2ccc3c(c2)OCO3)cc1C(C)(C)C)CC(=O)O` .
Result: FALSE

---

System name: Retinal dehydrogenase 2 (Homo sapiens) (UniProt O94788)
Test name: qHTS for Inhibitors of the Aldehyde Dehydrogenase Family (ALDH1A2) Confirmation screens (AID 2061314); also: nearly all actives have a fitted effect of over 65% in size
Condition parameters: ALDH1A2 enzyme inhibition qHTS confirmation; series mostly up to 45.9 µM
Results filed as inconclusive are left out. Calls of active or inactive are those of the source. Calls follow the shape of the dose curve; as a rule, active = well fitted inhibition curve with a large enough effect; inconclusive = small, poorly fitted or top-dose-only effect; inactive = no such curve, though single readings can be large or run the other way.
Thanks in advance; please answer with one of these: yes (1) (active), no (0) (inactive)

Examples with answers:
Molecule	System name	Classification
CC(=O)N1CCN(c2ccc(NCc3ccccc3)cc2)CC1	Retinal dehydrogenase 2 (Homo sapiens) (UniProt O94788)	yes (1)
CC(=O)Nc1sc2c(c1-c1nc3ccccc3s1)CN(C1COC1)C2	Retinal dehydrogenase 2 (Homo sapiens) (UniProt O94788)	yes (1)
c1nc(NCC2CCCCO2)c2cc(-c3ccc4c(c3)OCO4)ccc2n1 (stereo unspecified)	Retinal dehydrogenase 2 (Homo sapiens) (UniProt O94788)	yes (1)
Cc1cc(C)n2nc(CNS(=O)(=O)c3ccc(Cl)cc3)nc2n1	Retinal dehydrogenase 2 (Homo sapiens) (UniProt O94788)	no (0)

Query: So what was the verdict on `O=c1c2cn[nH]c2nc(SCc2cccc(Br)c2)n1-c1ccc(Cl)cc1` in this test?
Result: no (0)

Query: Returns: the outcome recorded for `CC(=O)Nc1sc2c(c1-c1nccs1)CCNC2` in this assay.
Result: no (0)
